test: Cytotoxicity against human A549 cells assessed as reduction in cell viability measured after 72 hrs by MTT assay; assay type: cell-based
quantity: CC50 at 72 h (nM)
Form entry: value (nM) — number only.

CC(=O)O[C@H]1C(=O)[C@@]2(C)[C@H]([C@H](OC(=O)c3ccccc3)[C@]3(O)C[C@H](OC(=O)[C@H](OC(=O)CCCc4cn(CCCCCCCCCCNC(=O)NCCCC[C@H](NC(=O)N[C@@H](CCC(=O)O)C(=O)O)C(=O)O)nn4)[C@@H](NC(=O)c4ccccc4)c4ccccc4)C(C)=C1C3(C)C)[C@]1(OC(C)=O)CO[C@@H]1C[C@@H]2O ... 5

Now for the molecule whose CC50 at 72 h we want.
CC50 at 72 h reading for CC(=O)O[C@H]1C(=O)[C@]2(C)[C@@H](OC(=O)CCCc3cn(CCCCCCCCCCC(=O)NCCCC[C@H](NC(=O)N[C@@H](CCC(=O)O)C(=O)O)C(=O)O)nn3)C[C@H]3OC[C@@]3(OC(C)=O)[C@H]2[C@H](OC(=O)c2ccccc2)[C@]2(O)C[C@H](OC(=O)[C@H](O)[C@@H](NC(=O)c3ccccc3)c3ccccc3)C(C)=C1C2(C)C : 632

The values you see were collected from ChEMBL document CHEMBL4387766.
